tested on: Rhodococcus rhodochrous; test: Antibacterial activity against Rhodococcus rhodochrous MTCC 265 at 2.5 mg/ml after 24 hrs by Kirby-Bauer single disc susceptibility test; assay type: functional; conditions: MTCC 265, 24 h, read-out: DIZ
MEASUREMENT_NAME: zone of inhibition at 2500 µg/mL
Entry format: amount then unit.

| ENTRY_SMILES | MEASUREMENT_NAME | RECORDED_RESULT |
| --- | --- | --- |
| COc1cccc(-n2cc(COc3ccc(/C=C/C(=O)c4c(O)n(C)c(=O)n(C)c4=O)cc3)nn2)c1 | zone of inhibition at 2500 µg/mL | 3 mm |

Qu. Record request: zone of inhibition at 2500 µg/mL value, item `Cn1c(O)c(C(=O)/C=C/c2ccc(OCc3cn(Cc4ccccc4)nn3)cc2)c(=O)n(C)c1=O`
Ans. 2 mm

Qu. zone of inhibition at 2500 µg/mL for `Cc1cccc(-n2cc(COc3ccc(/C=C/C(=O)c4c(O)n(C)c(=O)n(C)c4=O)cc3)nn2)c1` ?
Ans. 3 mm

Qu. Reported zone of inhibition at 2500 µg/mL, molecule `Cn1c(O)c(C(=O)/C=C/c2ccc(OCc3cn(-c4ccc(F)cc4)nn3)cc2)c(=O)n(C)c1=O` : ____
Ans. 0 mm

* * *

test system: Rhodococcus rhodochrous; experiment: Antibacterial activity against Rhodococcus rhodochrous MTCC 265 at 2.5 mg/ml after 24 hrs by Kirby-Bauer single disc susceptibility test; format: functional; conditions: MTCC 265, 24 h, read-out: DIZ
MEASUREMENT_NAME: zone of inhibition at 2500 µg/mL (mm)
State the answer as a number, implicitly in mm.

| ENTRY_SMILES | MEASUREMENT_NAME | UNIT_TAG | RECORDED_RESULT |
| --- | --- | --- | --- |
| Cn1c(O)c(C(=O)/C=C/c2ccc(OCc3cn(-c4ccc(Cl)cc4)nn3)cc2)c(=O)n(C)c1=O | zone of inhibition at 2500 µg/mL | mm | 0 |
| COc1ccc(-n2cc(COc3ccc(/C=C/C(=O)c4c(O)n(C)c(=O)n(C)c4=O)cc3)nn2)cc1 | zone of inhibition at 2500 µg/mL | mm | 2 |
| Cn1c(O)c(C(=O)/C=C/c2ccc(OCc3cn(-c4ccc(Br)cc4)nn3)cc2)c(=O)n(C)c1=O | zone of inhibition at 2500 µg/mL | mm | 3 |

Shifting focus to the compound that follows.
Qu. Find the recorded zone of inhibition at 2500 µg/mL belonging to `Cn1c(O)c(C(=O)/C=C/c2ccc(OCc3cn(-c4ccccc4)nn3)cc2)c(=O)n(C)c1=O` and report it.
Ans. 4
